# Test system: MCF-7 breast cancer cells
# method: Cytotoxicity (cell death, propidium iodide) in MCF-7 cells
# Assay type: cell-based
# condition-parameters: MCF-7, 72 h exposure

compound	EC50 for MCF-7 cytotoxicity
CC/C(=C(\c1ccccc1)c1ccc(OCCN(C)C)cc1)c1ccccc1 [Tamoxifen, reference compound]	micromolar EC50
O=C(c1cc(Cc2n[nH]c(=O)c3ccccc23)ccc1F)N1CCN(C(=O)C2CC2)CC1 [Olaparib, reference compound]	micromolar EC50

###

# method: Cytotoxicity (cell death, propidium iodide) in MCF-10A cells
# Assay type: cell-based
# condition-parameters: human, MCF-10A non-cancerous breast cells, within the first 24 h
Items are presented alongside their recorded EC50 at 24 h.

molecule	EC50 at 24 h
CC/C(=C(\c1ccccc1)c1ccc(OCCN(C)C)cc1)c1ccccc1 [Tamoxifen, reference compound]	268 to 511 µM

Attention now turns to another entry.
### Prompt Supply EC50 at 24 h value. Item: O=C(c1cc(Cc2n[nH]c(=O)c3ccccc23)ccc1F)N1CCN(C(=O)C2CC2)CC1 [Olaparib, reference compound]
### Response 268 to 511 µM

###

# Tested on: triple-negative MDA-MB-231 breast cancer cells
# method: cells
# condition-parameters: Homo sapiens, MDA-MB-231, 72 h, read-out: Cytotoxicity EC50
reported-metric: EC50

### Prompt Supply EC50 value. Item: C=C(C[C@H](N)C(=O)O)C(=O)N1CCCCC1
### Response > 1000 µM

### Prompt Supply EC50 value. Item: C=C(C[C@H](N)C(=O)O)C(=O)Nc1ccc(Cl)cc1
### Response > 1000 µM

### Prompt Supply EC50 value. Item: C=C(C[C@H](N)C(=O)O)C(=O)NC1CC1
### Response > 1000 µM
